Target desc: human PPARα (Homo sapiens, UniProt Q07869)
Sequence (Q07869 239-466 limits assumed): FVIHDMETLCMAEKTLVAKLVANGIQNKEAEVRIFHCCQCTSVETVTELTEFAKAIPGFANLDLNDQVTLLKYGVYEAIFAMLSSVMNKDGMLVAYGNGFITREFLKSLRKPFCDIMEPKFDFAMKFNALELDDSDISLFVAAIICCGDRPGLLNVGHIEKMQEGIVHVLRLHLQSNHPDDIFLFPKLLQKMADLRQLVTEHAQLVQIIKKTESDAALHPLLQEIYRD
Experiment: Gene reporter (transactivation) assay, Cos-7 cells transfected with pGal4-hPPARα;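 further: luciferase signal from a Gal4-driven reporter normalised to cotransfected β-galactosidase activity, cells exposed to rising compound concentrations with DMSO vehicle as control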
Measurement parameters: GAL4 chimeric hPPARα, 24 h, read-out: hPPAR gene reporter αEC50
Quantity name: EC50 (nM)

Recorded EC50, per entry:
| Compound | Target desc | Value unit | EC50 |
| --- | --- | --- | --- |
| CCO[C@@H](Cc1ccc(OCCn2c(=O)sc3cc(C(=O)c4ccccc4)ccc32)cc1)C(=O)O [Compound 41a] | human PPARα (Homo sapiens, UniProt Q07869) | nM | 522 |
| CCOC(Cc1ccc(OCCN2C(=O)CSc3cc(C(=O)c4ccccc4)ccc32)cc1)C(=O)O (stereo not shown) [Compound 34] | human PPARα (Homo sapiens, UniProt Q07869) | nM | 2050 |

[P] CCO[C@H](Cc1ccc(OCCn2c(=O)sc3cc(/C(=N/OC)c4ccccc4)ccc32)cc1)C(=O)O [Compound 46a]
[Q] CCOC(Cc1ccc(OCCn2c(=O)sc3cc(C(=O)c4ccccc4)ccc32)cc1)C(=O)O (stereo not shown) [Compound 32a]
Name the one with the greater EC50 value, either P or Q as given. Respond using the label that marks the chosen record.
Q
